# System: MS2 coat protein
# assay.explanation: apparent KD of MS2 coat protein; higher = weaker reporter binding
# condition.set: Eterna round: R107; input ligand: tryptophan 2.4 mM
measurement.type: apparent KD of MS2 coat protein (nM)

[[record]]
macromolecule_sequence = "GGCGCGCGCCAACAUGAGGAUCACCCAUGUCGAGGACCGGUACGGCCGCCACUCGAACGAGUGAAGCGCGCGCGCGGGCGACCGC [Saa]"
observed = 77.1

[[record]]
macromolecule_sequence = "GGACUAACCAGAAGGAGCGGCACGCAGAAACUGCUAAUUCCUCCGCACGAGGAUCACCCGUGUCAGGUAGGUCGCUGGUUAGUCG [ArgBX 28]"
observed = 13

[[record]]
macromolecule_sequence = "AGUGUUAUAACUGAUACCAGACCUUUGCUUAUACAUGAGGAUCACCCAUGUAAAAUGGCGGUCCCUUGGCAGCAGAGAAUACGCA [#09 Same State - Theophylline B]"
observed = 60.1

[[record]]
macromolecule_sequence = "GCACGACAUGAGGAUCACCCAUGUGCCGAUACCAGCCGGAUAUACGGCCCUUGGCAGCGGAGUGGAUCCGGAGGACCAUGGGUAA [Same State Theophylline A GF7]"
observed = 92.5

[[record]]
macromolecule_sequence = "AGCGCAGGUCCUGAUACCAGUGACAUGAGGAUCACCCAUGUCCGAUGGGCCUGCCUCUGACACCCUUGGCAGCAGGGCUUGUGCU [#14 Exclusion-TheophyllineB]"
observed = 21.3

[[record]]
macromolecule_sequence = "GCACCAGGUACGGAUACCAGAGCAAGCCAAAUGAGUGACCAUGAGGAUCACCCAUGGUUGCUCCCUUGGCAGCCGUACCUGGUGC [ETB NP+V+V2 #13 Diff Apt, +-Same Structure]"
observed = 10.9


====

Reported values of apparent KD of MS2 coat protein for individual entries
# Test system: MS2 coat protein
# assay.explanation: apparent KD of MS2 coat protein; designed switch direction (-1 OFF switch, 1 ON switch): -1; higher = weaker reporter binding
# condition.set: Eterna round: R95; input ligand: microRNA oligo, concentration not stated
measurement.type: apparent KD of MS2 coat protein

[[record]]
macromolecule_sequence = "CUGAGCAGACGGAGAUCCAACAUGAGGAUCACCCAUGUCUCAAAAGCUUUUUGCUUGUCUUAUCCUCCUCUGUUCAC [Esqutian] (puzzle: Sensor v3, turn-off variant 1)"
observed = "390 nM"

[[record]]
macromolecule_sequence = "UUUAGUUCAGGAUAUGUAGAUUUUAACAUGAGGAUCACCCAUGUAGAUCCUGAAUUAACUACAGAAGGGAACAUUG [Exclusion 5: 2:b] (puzzle: Exclusion 5)"
observed = "18.2 nM"

[[record]]
macromolecule_sequence = "UUUUUACAUGAGGAUCACCCAUGUCAGGAUAUGUUUAUAUUUUAUUAUUUUAUUUUUUACAGAAGGGACUAUUA [My solution] (puzzle: Exclusion 1)"
observed = "123 nM"


====

Reported values of apparent KD of MS2 coat protein for individual entries
# System: MS2 coat protein
# assay.explanation: apparent KD of MS2 coat protein; designed switch direction (-1 OFF switch, 1 ON switch): -1; higher = weaker reporter binding
# condition.set: input ligand: none
measurement.type: apparent KD of MS2 coat protein (µM)

[[record]]
macromolecule_sequence = "AUCCUACAUGAGGAUCACCCAUGUCAGGAUAUCCAAGAAAUGUGGCCUGAUUGGCCACGGAGAAGGGACGGGUG [jl-ex1-4.60 ViennaUCT mod] (Eterna round: R97, puzzle: Exclusion 1)"
subject_of_test = "MS2 coat protein"
observed = 0.045

[[record]]
macromolecule_sequence = "UGCGGGCUUUUGAGACCUCACAUGAGGAUCACCCAUGUGCUUGUCUUGUGGGUGGGUAGGUCGUUGGCUGACUCACG [Sensor-V1 #98] (Eterna round: R97, puzzle: Sensor, turn-off variant 1)"
subject_of_test = "MS2 coat protein"
observed = 0.0689

[[record]]
macromolecule_sequence = "AGCUAGUGCCGAGGAUAUGAUACAUGAGGAUCACCCAUGUGUAGGGUGUAUAUAUAUCAAUAAUAUUAGAAGGCGGCGUUGGCA [JL ENG2 1.47] (Eterna round: R96, puzzle: Exclusion NG 2)"
subject_of_test = "MS2 coat protein"
observed = 1.48


====

# Tested on: MS2 coat protein
# assay.explanation: apparent KD of MS2 coat protein; designed switch direction (-1 OFF switch, 1 ON switch): -1; higher = weaker reporter binding
# condition.set: input ligand: FMN 200 uM
apparent KD of MS2 coat protein below 200 nM gives label 0; apparent KD of MS2 coat protein at or above it gives label 1.

[[record]]
macromolecule_sequence = "GUACGCUCAGGAUAUCAAGGGCUGUACAUGAGGAUCACCCAUGUUAUCUUGGUGUCAGCGUGAGAAGGGAGGGAAA [Xesoonesa] (Eterna round: R96, puzzle: Exclusion 5)"
category_label = "label 0"

[[record]]
macromolecule_sequence = "ACAAGCUUUUAGAUUCUUAACAUGAGGAUCACCCAUGUGCUCGUCUUAUUGGCCGGCGGGCCGCCGGAAAAGCUUGU (Eterna round: R97, puzzle: Sensor, turn-off variant 1)"
category_label = "label 1"

[[record]]
macromolecule_sequence = "GCUAGAGCAGGAUAUCGAGAUCCGCACAUGAGGAUCACCCAUGUACGGUCGAAAGACCGACGAGAAGGGCUCUAGC [Omei Ex5 E10] (Eterna round: R97, puzzle: Exclusion 5)"
category_label = "label 0"

[[record]]
macromolecule_sequence = "GCAAGCUUUUUGGUUUUCAACAUGAGGAUCACCCAUGUUCGUCUUGUGCUCGGGCUUGGGCGGUGUCCGGGUUUGGG [Default title] (Eterna round: R97, puzzle: Sensor, turn-off variant 1)"
category_label = "label 0"

[[record]]
macromolecule_sequence = "UUAAAUCAUGUAGGAUAUGCGUGGCGAAGCUAUGCAGAAGGACAUGAGGAUCACCCAUGUGCUUCCGUCUGCGUACAGACGGUA [JL ENG1 1.14] (Eterna round: R96, puzzle: Exclusion NG 1)"
category_label = "label 1"


====

# Tested on: K4 kissing-loop RNA reporter;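 further: bound reporter read as fluorescence of individual clusters on recovered sequencing chips by microscopy, with normalized cluster intensities fitted with a binding model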
# assay.explanation: apparent KD of K4 kissing-loop reporter; higher = weaker reporter binding
# condition.set: Eterna round: R107; input ligand: tryptophan 2.4 mM
apparent KD of K4 kissing-loop reporter below 200 nM gives f; apparent KD of K4 kissing-loop reporter at or above it gives t.

[[record]]
macromolecule_sequence = "AAUAAUUUCAGAGGAUAUGCUUUAUUAUGAUUUUUAAAUAAUAAAUGCAGUGAUGUUGCUUAUUAUGCAGAAGGCUGAUUUAUAA [JR_SSFMNB_Sub015]"
category_label = "t"

[[record]]
macromolecule_sequence = "GGUAGCAUGGCGGCCGCCACUAUUACUGGAUCGGAAACGAUCCAGUAUUUAUGAGUGAUGUUCAUUAGGACCGGGCCAUGCUACC"
category_label = "t"

[[record]]
macromolecule_sequence = "GUUACGCAUGGAAGGAGCGCGAAUUUAAUUAGUGAGUGAUGUUCACAUAAAAUGUAUAAUACGCAGGUAGGUCGCCAUGUGUAAC [whbob_Ex_Arginine_B_2th163]"
category_label = "f"

[[record]]
macromolecule_sequence = "UGUACCGAGUCAGGAUAUGGCGUCGAAAGACGAAUCUUAGUGAUGUUAGGGAUCUGCGAAAGCAGUCCAGAAGGGACUUGGUACU [FmnBS 26 U37]"
category_label = "t"

[[record]]
macromolecule_sequence = "AUGACGGGUAGUGAUGUUAUCCACGAUGGGAAGGAUAUCAACCGUGUGAGAAGGUCCUUAUCGGUGCGGCACAUGCAGGUACUAC [theeternabot_sameState_KL_FMN_A_41]"
category_label = "t"

[[record]]
macromolecule_sequence = "AUUUAGACGAGUGAUGUUCGUGAUAUUACAGAGGAUAUGCUUAAAAGCAGAAGGCUGUAUUUAUAUUUGUUAUGUAAUUUUAAAA [JR_ExcFMNA_Sub005]"
category_label = "f"


====

# Tested on: MS2 coat protein
# assay.explanation: apparent KD of MS2 coat protein; designed switch direction (-1 OFF switch, 1 ON switch): -1; higher = weaker reporter binding
# condition.set: input ligand: FMN 200 uM
measurement.type: apparent KD of MS2 coat protein (nM)

[[record]]
macromolecule_sequence = "GGUCGACAUGAGGAUCACCCAUGUCAGGAUAUCGUCACUGGAGCUGCGGCUCCAGUGACGAGAAGGGAUAUAAU [E1/15-A3] (Eterna round: R97, puzzle: Exclusion 1)"
subject_of_test = "MS2 coat protein"
unit_descriptor = "nM"
observed = 45.3

[[record]]
macromolecule_sequence = "CUUUCGUGAGGAUAUGUGGCUUCGAUCGUGCGAUCGAGGCUACAGAAGGCACAUGAGGAUCACCCAUGUUCCUC [salish99_ex4_r4_221] (Eterna round: R97, puzzle: Exclusion 4)"
subject_of_test = "MS2 coat protein"
unit_descriptor = "nM"
observed = 427

[[record]]
macromolecule_sequence = "CCUCCGGUAUAGGAUAUUUAUGAGCUCAGUUCUAAAGAAGGGUAUACAUGAGGAUCACCCAUGUGUGAAGUUAU [Eternabot (L2) Solution 20] (Eterna round: R97, puzzle: Exclusion 6)"
subject_of_test = "MS2 coat protein"
unit_descriptor = "nM"
observed = 52.5

[[record]]
macromolecule_sequence = "CUUUUGUGAGGAUAUUAGUAGUAAAUGAAUAAAAUUAUUACUGAGAAGGUACAUGAGGAUCACCCAUGUUCCUU [Mat - Exclusion 4 - Eli Mod - D20] (Eterna round: R97, puzzle: Exclusion 4)"
subject_of_test = "MS2 coat protein"
unit_descriptor = "nM"
observed = 16.3

[[record]]
macromolecule_sequence = "AAGAAGAUCAAAGGAUAUGGAGCUGAAACGGAGCUAGAAGGUUGUCUAGUUUAACAUGAGGAUCACCCAUGUAGGUACCUCUAA [AK ExNG1-V2-1] (Eterna round: R96, puzzle: Exclusion NG 1)"
subject_of_test = "MS2 coat protein"
unit_descriptor = "nM"
observed = 850

